Data provenance: PubChem BioAssay AID248

system: L1210 leukemia ip in BDF1 mice, survival T/C; assay: NCI In Vivo Anticancer Drug Screen. Data for tumor model L1210 Leukemia (intraperitoneal) in B6D2F1 (BDF1) mice; conditions: endpoint: mean survival time; dose: 400.0 mg/kg/injection; schedule: Q04DX003 (ip); vehicle: acetone; higher = longer survival
Toxic doses and inconclusive results are not listed.
TEST READOUT: T/C

Worked cases, T/C given:
mol=O=P(O)(c1cccc(Cl)c1)c1cccc(Cl)c1 test_result="97 % of control"
mol=COc1ccc2oc(C(=O)O)cc2c1 test_result="101 % of control"

Query: Entry "CC(C)(C)NP(=O)(NC(C)(C)C)c1ccc([N+](=O)[O-])cc1" has what T/C?
Result: 93 % of control

Query: Entry "CCCCNc1nc(N)nc(Nc2ccc(Br)cc2)c1N=O" has what T/C?
Result: 100 % of control
